The reported measurements were obtained from PubChem BioAssay AID330.

# System: P388 leukemia ip, CD2F1 mice, survival T/C
# ASSAY: NCI In Vivo Anticancer Drug Screen. Data for tumor model P388 Leukemia (intraperitoneal) in CD2F1 (CDF1) mice
# CONDITIONS USED: endpoint: median survival time; dose: 100.0 mg/kg/injection; schedule: Q01DX005 (ip); vehicle: Klucel (hydroxypropylcellulose) (HPC); higher = longer survival
Inconclusive results and toxic doses are left out.
Examples of molecules with documented T/C follow.
ATTRIBUTE MEASURED: T/C

| MOLECULE | SYSTEM UNDER TEST | REPORTED VALUE |
| --- | --- | --- |
| NC(=O)/C(N=Nc1ccccc1C(=O)O)=N\Nc1ccccc1C(=O)O | P388 leukemia ip, CD2F1 mice, survival T/C | 95 % of control |
| CCOC(=O)N1CCc2cc(OC)c(OC)cc2/C1=C/c1ccsc1 | P388 leukemia ip, CD2F1 mice, survival T/C | 102 % of control |
| C[CH2][Ge]([CH2]C)[CH2]C.C[CH2][Ge]([CH2]C)[CH2]C(=O)OC | P388 leukemia ip, CD2F1 mice, survival T/C | 100 % of control |
| O=C(O)CNC(=O)C(CSCc1ccccc1)NC(=O)OCc1ccccc1 (configuration not stated) | P388 leukemia ip, CD2F1 mice, survival T/C | 102 % of control |
| CC(C)n1cc(C(C)(C)C)nc1SSc1nc(C(C)(C)C)cn1C(C)C | P388 leukemia ip, CD2F1 mice, survival T/C | 96 % of control |
| O=[N+]([O-])c1ccc(-c2nnn(Cc3ccco3)c2N2CCCCC2)cc1 | P388 leukemia ip, CD2F1 mice, survival T/C | 105 % of control |
| O=C1SC/C(=N\N=C2/CSC(=O)N2Cc2ccccc2)N1Cc1ccccc1 | P388 leukemia ip, CD2F1 mice, survival T/C | 93 % of control |
| COc1cc(C(=O)c2cc3c(cc2C=O)OCO3)cc(OC)c1OC | P388 leukemia ip, CD2F1 mice, survival T/C | 90 % of control |
| COc1ccc(N(N=O)c2c(C)cc(C)cc2C)c(C(=O)O)c1 | P388 leukemia ip, CD2F1 mice, survival T/C | 96 % of control |
| O=C1CSC(c2cccs2)N1c1nccs1 (configuration not stated) | P388 leukemia ip, CD2F1 mice, survival T/C | 106 % of control |
| O=c1ccn(C2CC(O)C(CO)O2)c(=O)[nH]1 (configuration not stated) | P388 leukemia ip, CD2F1 mice, survival T/C | 101 % of control |
| O=C(NC[N+]12CCO[B-]1(c1ccccc1)OCC2)c1ccccc1O (configuration not stated) | P388 leukemia ip, CD2F1 mice, survival T/C | 98 % of control |
| O=C(Nc1ccccc1C1=NCCN1)c1ccc(C(=O)Nc2ccccc2C2=NCCN2)cc1 | P388 leukemia ip, CD2F1 mice, survival T/C | 87 % of control |
| O=C1NC(=S)NC(=O)C1=Cc1cccc2cc3ccccc3cc12 | P388 leukemia ip, CD2F1 mice, survival T/C | 95 % of control |
| CSC1=NN(C(C)=O)C(c2ccc3ccccc3n2)S1 (configuration not stated) | P388 leukemia ip, CD2F1 mice, survival T/C | 89 % of control |
| CC(=Nc1ccc(F)cc1)C1C(=O)c2ccccc2C1=O | P388 leukemia ip, CD2F1 mice, survival T/C | 100 % of control |
| Cn1c2c(F)cccc2c(=O)c2c(O)cc3c(c21)C=CC(C)(C)O3 | P388 leukemia ip, CD2F1 mice, survival T/C | 91 % of control |
| COC(=O)/C(C#N)=C/c1ccc(NC(C)=O)cc1 | P388 leukemia ip, CD2F1 mice, survival T/C | 94 % of control |
| COc1c(Br)c2c(c([N+](=O)[O-])c1OC)C(=O)OC2C1c2c(cc3c(c2OC)OCO3)CCN1C (configuration not stated) | P388 leukemia ip, CD2F1 mice, survival T/C | 104 % of control |
| COc1cc(C2OCC3C(c4cc(OC)c(OC)c(OC)c4)OCC23)cc(OC)c1OC (configuration not stated) | P388 leukemia ip, CD2F1 mice, survival T/C | 100 % of control |
| CN1C(=O)C(=C2C=C(c3ccccc3)C(C#N)(c3ccccc3)C(c3ccccc3)=C2)C(=O)N(C)C1=O (configuration not stated) | P388 leukemia ip, CD2F1 mice, survival T/C | 107 % of control |
| COc1cc(NCCCCCN=C(N)NC#N)c2ncccc2c1 | P388 leukemia ip, CD2F1 mice, survival T/C | 98 % of control |
